Target: MALAT1
Settings: ASO, A431, 0.005 µM
After the bases stand the sugars from the 5' end (letter, count) and the backbone: PS all phosphorothioate, else s phosphorothioate and o phosphodiester by linkage. Methylation of C is not given here. k = constrained ethyl (cEt); d = 2'-deoxy (DNA)
Hi there, I'd appreciate the recorded target mRNA inhibition for every entry that follows.
Give bare numbers, in %.

Macromolecule sequence	Unit abbreviation	Endpoint value
TACTTGCCAACTTGGA (sugars k3 d10 k3, PS)	%	51
CGCTCCTTCCTGGAAT (sugars k3 d10 k3, PS)	%	-19
TGAACCAAAGCTGCAC (sugars k3 d10 k3, PS)	%	2
AGTTAATGTCAGCCCA (sugars k3 d10 k3, PS)	%	34

Next sequence, target mRNA inhibition to be filled in.
Requested read-out: target mRNA inhibition. Entry: GAGTATGCTGATAAAC (sugars k3 d10 k3, PS)
37
